pIC50 values recorded for Histone-lysine N-methyltransferase EZH2 (Homo sapiens, UniProt Q15910, Y641F)
pIC50: −log10 of the molar value.

{"compound": "CCN(c1cc(-c2cnc(N3CCN(C)CC3)nc2)cc2c(NCc3c(C)cc(C)[nH]c3=O)nccc12)[C@H]1CC[C@H](N(C)C)CC1", "pIC50": "> 8.30"}
{"compound": "COc1cc(C)[nH]c(=O)c1CNC(=O)c1c(C)n(C(C)C2CCN(C)C(C(F)(F)F)C2)c2ccccc12 (stereo not given)", "pIC50": "> 7.00"}
{"compound": "COc1cc(C)[nH]c(=O)c1CNC(=O)c1c(C)n([C@H](C)C2CCN(CC(C)(F)F)CC2)c2ccccc12", "pIC50": "> 9.00"}
{"compound": "CCN(c1cc(C(=O)NCc2c(OC)cc(C)[nH]c2=O)nc2c(-c3ccnc(N(C)C)c3)cnn12)C1CCOCC1", "pIC50": "≥ 7.00"}
{"compound": "CCN(c1cc(C(=O)NCc2c(OC)cc(C)[nH]c2=O)nc2c(-c3ccnc(NC)c3)cnn12)C1CCN(CC(F)(F)F)CC1", "pIC50": "≥ 7.00"}
